The measured values listed here are drawn from patent US20140148397A1.

ASSAY TARGET: hMC3R (human, UniProt P41968 1-323)
Sequence (P41968 whole entry): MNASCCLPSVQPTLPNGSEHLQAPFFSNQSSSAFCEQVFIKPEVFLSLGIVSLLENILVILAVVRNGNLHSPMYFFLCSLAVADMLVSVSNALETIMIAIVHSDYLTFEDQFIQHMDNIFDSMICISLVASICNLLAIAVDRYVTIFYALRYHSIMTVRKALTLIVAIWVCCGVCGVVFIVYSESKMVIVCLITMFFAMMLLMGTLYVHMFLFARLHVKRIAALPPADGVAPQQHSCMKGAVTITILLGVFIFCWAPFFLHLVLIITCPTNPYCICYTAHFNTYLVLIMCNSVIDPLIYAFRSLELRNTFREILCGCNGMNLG
PROTOCOL: cell-based or functional assay
Ends that are not written are not given here.
ATTRIBUTE MEASURED: EC50 (nM), NDP-MSH stimulated cAMP production in the presence of 0.10 µM AgRP protein
Your answer is read as nM, so omit the unit and give the number.

Sample Ac-CVRLHESCLGQQVPCCDPAATCYCRFFNAFCYCR-NH2 (disulfide (positions not given here); not fully specified; also: oxidatively folded, disulfide pairing not given here) [AgRP(87-120)] — what was its EC50 (nM), NDP-MSH stimulated cAMP production in the presence of 0.10 µM AgRP protein?
5.5

Now consider SSRRCVRLHESCLGQQVPCCDPCATCYCRFFNAFCYCRKLKTKMNPCSRT-NH2 (disulfide (positions not given here)) [AgRP-2K] .
16.1

Now consider SSRRCVRLHESCLGQQVPCCDPAATCYCRFFNAFCYCR-NH2 (disulfide (positions not given here); not fully specified; also: oxidatively folded, disulfide pairing not given here) [AgRP(83-120)] .
2.96

Now consider KKRRCVRLHESCLGQQVPCCDPCATCYCRFFNAFCYCRKLKTKMNPCSRT-NH2 (disulfide (positions not given here)) [AgRP-4K] .
2.66

Now consider SSQQCVRLHESCLGQQVPCCDPCATCYCRFFNAFCYCRQLGTAMNPCSQT-NH2 (disulfide (positions not given here)) [AgRP-4Q] .
1.62

Now consider SSRRCVRLHESCLGQQVPCCDPCATCYCRFFNAFCYCRQLGTAMNPCSQT-NH2 (disulfide (positions not given here)) [AgRP-2Q] .
9.22
